Can you tell me log10 of EC50 for the items I'm about to list?
- tested_on: human DP2 (Homo sapiens, UniProt Q9Y5Y4)
- Construct: expressed in transfected cells; membranes prepared
- Sequence (Q9Y5Y4 1-395): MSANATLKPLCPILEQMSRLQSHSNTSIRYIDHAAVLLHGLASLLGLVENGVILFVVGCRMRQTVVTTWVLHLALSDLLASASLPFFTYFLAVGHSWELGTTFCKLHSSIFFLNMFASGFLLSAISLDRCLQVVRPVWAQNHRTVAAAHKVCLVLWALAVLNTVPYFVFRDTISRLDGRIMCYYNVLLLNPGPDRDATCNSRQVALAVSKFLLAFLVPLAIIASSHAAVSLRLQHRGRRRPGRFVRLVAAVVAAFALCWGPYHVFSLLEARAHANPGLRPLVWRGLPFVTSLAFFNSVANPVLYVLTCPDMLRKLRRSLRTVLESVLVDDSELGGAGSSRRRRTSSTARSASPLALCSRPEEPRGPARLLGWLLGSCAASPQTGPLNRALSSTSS
- assay_procedure: DP-2 binding inhibition assay (3H-PGD2, membranes of DP2-expressing K562 cells)
- conditions_used: 4% HSA, read-out: EC50 (nM) 4% HSA
Could you please treat all values as log10 of EC50 in nM?

Noted for COc1ccc2nc(NC(=O)c3ccc(Oc4cc5c(cc4Cl)C(C(=O)O)CCO5)cc3)ccc2c1 (stereo not drawn) : its log10 of EC50 reads 2.67

Noted for Cc1nc(NC(=O)c2ccc(Oc3cc4c(cc3Cl)C(C(=O)O)CCO4)cc2)sc1C(C)(C)C (stereo not drawn) : its log10 of EC50 reads 2.67

Noted for O=C(Nc1cccc(-c2ccc(Cl)cc2)n1)c1ccc(Oc2cc3c(cc2Cl)C(C(=O)O)CCO3)cc1 (stereo not drawn) [Example 33] : its log10 of EC50 reads 1.48

Noted for COc1ccc(-c2cccc(CCNC(=O)c3ccc(Oc4cc5c(cc4Cl)C(C(=O)O)CCO5)cc3)n2)cc1 (stereo not drawn) : its log10 of EC50 reads 3.13

Noted for O=C(Nc1cccc(-c2ccc(Cl)cc2)n1)c1ccc(Oc2c(Cl)cc3c(c2Br)OCCC3C(=O)O)cc1 (stereo not drawn) : its log10 of EC50 reads 1.94

Noted for O=C(Nc1cc(-c2ccc(Cl)cc2)n[nH]1)c1ccc(Oc2cc3c(cc2Cl)C(C(=O)O)CCO3)cc1 (stereo not drawn) : its log10 of EC50 reads 2.61

Noted for Cc1cccc(-c2cccc(NC(=O)c3ccc(Oc4cc5c(cc4C#N)C(C(=O)O)CCO5)cc3)n2)c1C (stereo not drawn) : its log10 of EC50 reads 2.08

Noted for O=C(Nc1ccc(-c2ccc(C(F)(F)F)cc2Cl)nn1)c1ccc(Oc2cc3c(cc2Cl)C(C(=O)O)CCO3)cc1 (stereo not drawn) : its log10 of EC50 reads 2.45

Noted for CCOc1ncccc1CCNC(=O)c1ccc(Oc2cc3c(cc2Cl)C(C(=O)O)CCO3)cc1 (stereo not drawn) : its log10 of EC50 reads 2.27

Noted for N#Cc1cc2c(cc1Oc1ccc(C(=O)Nc3cccc(-c4cccc(Cl)c4)n3)cc1)OCCC2C(=O)O (stereo not drawn) : its log10 of EC50 reads 2.13

Noted for O=C(Nc1cncc(-c2ccc(Cl)cc2)c1)c1ccc(Oc2cc3c(cc2Cl)C(C(=O)O)CCO3)cc1 (stereo not drawn) : its log10 of EC50 reads 2.67

Noted for O=C(Nc1cncc(-c2cccc(Cl)c2)n1)c1ccc(Oc2cc3c(cc2Cl)C(C(=O)O)CCO3)cc1 (stereo not drawn) : its log10 of EC50 reads 2.62

Noted for O=C(Nc1ccc(C(F)(F)F)nc1)c1ccc(Oc2cc3c(cc2Cl)C(C(=O)O)CCO3)cc1 (stereo not drawn) : its log10 of EC50 reads 1.69

Noted for N#Cc1cc2c(cc1Oc1ccc(C(=O)NCCc3ccc(C(F)(F)F)nc3)cc1)OCCC2C(=O)O (stereo not drawn) : its log10 of EC50 reads 2.82

Noted for O=C(Nc1cnn(-c2cccc(Cl)c2)c1)c1ccc(Oc2c(Cl)cc3c(c2Cl)OCCC3C(=O)O)cc1 (stereo not drawn) : its log10 of EC50 reads 2.27
